biological target: mS1P5 (Mus musculus); construct: expressed in transfected cells; host or cells: HEK293T; experiment: [γ-35S]GTP binding to HEK293T cell membranes, mS1P5; assay type: biochemical; conditions: GTPγS binding
Sequence (Q91X56 whole entry): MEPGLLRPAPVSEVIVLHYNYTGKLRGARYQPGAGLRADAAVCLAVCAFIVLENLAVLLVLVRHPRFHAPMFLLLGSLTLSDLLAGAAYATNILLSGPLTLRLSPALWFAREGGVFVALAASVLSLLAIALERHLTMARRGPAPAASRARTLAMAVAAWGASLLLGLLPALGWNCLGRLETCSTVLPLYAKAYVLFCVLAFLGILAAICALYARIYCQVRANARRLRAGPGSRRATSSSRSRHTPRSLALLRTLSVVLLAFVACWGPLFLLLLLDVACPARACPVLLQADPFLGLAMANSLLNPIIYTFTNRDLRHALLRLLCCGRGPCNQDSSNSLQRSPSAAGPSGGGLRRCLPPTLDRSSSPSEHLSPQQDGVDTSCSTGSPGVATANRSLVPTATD
Hi there, I'd appreciate the recorded EC50 for every entry that follows.
Number in µM, nothing else.

Q: Could you share which EC50 value was measured for CCCCCCCCCCCCC/C=C/[C@@H](O)[C@@H](N)COP(=O)(O)O [Compound S1P, Sphingosine-1-phosphate, reference compound] ?
A: 0.0127

Q: // EC50 lookup, key: CCCCCCCCCCCCCCCCNC(=O)[C@@H](N)COP(=O)(O)O
A: 1.33

Q: Data request, read-out EC50, for CCCCCCCCCCCCCCNC(=O)[C@H](N)COP(=O)(O)O
A: 1.82

====

For each record, write down the corresponding EC50.
target: zS1P1 (Danio rerio); construct: expressed in transfected cells; host or cells: rat hepatoma RH-7777; assay: [γ-35S]GTP binding, zebrafish S1P1 overexpressed in rat RH-7777 cells; format: biochemical; conditions: GTPγS binding; zebrafish S1P1 in rat RH-7777
Sequence (Q9DDK4 whole entry): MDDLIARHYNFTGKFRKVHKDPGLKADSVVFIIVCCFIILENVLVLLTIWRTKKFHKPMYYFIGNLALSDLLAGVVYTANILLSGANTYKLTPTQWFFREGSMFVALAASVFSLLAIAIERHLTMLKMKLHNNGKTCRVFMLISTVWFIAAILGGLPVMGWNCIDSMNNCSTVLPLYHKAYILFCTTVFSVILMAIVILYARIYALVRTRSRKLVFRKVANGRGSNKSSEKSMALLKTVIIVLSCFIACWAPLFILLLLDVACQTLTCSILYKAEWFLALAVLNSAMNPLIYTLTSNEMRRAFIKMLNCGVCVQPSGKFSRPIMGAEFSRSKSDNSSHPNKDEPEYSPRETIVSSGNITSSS
Give the quantity in nM, number only.

Q: I am curious: what EC50 value has been reported for CCCCCCCCCCCCC/C=C/[C@@H](O)[C@@H](N)COP(=O)(O)O [Compound S1P, Sphingosine-1-phosphate, reference compound] ?
A: 54.6

Q: What EC50 value was documented for this compound, CCCCCCCCCCCCNC(=O)[C@@H](N)COP(=O)(O)O ?
A: 2050

Q: I'd like to know its EC50. The compound in question is CCCCCCCCCCCCCCNC(=O)[C@H](N)COP(=O)(O)O
A: 1620

====

target: hS1P3 (Homo sapiens, UniProt Q99500); construct: expressed in transfected cells; host or cells: HEK293T; test: [γ-35S]GTP binding to HEK293T cell membranes, hS1P3; assay type: biochemical; settings: GTPγS binding, Example 3 series
Sequence (Q99500 whole entry): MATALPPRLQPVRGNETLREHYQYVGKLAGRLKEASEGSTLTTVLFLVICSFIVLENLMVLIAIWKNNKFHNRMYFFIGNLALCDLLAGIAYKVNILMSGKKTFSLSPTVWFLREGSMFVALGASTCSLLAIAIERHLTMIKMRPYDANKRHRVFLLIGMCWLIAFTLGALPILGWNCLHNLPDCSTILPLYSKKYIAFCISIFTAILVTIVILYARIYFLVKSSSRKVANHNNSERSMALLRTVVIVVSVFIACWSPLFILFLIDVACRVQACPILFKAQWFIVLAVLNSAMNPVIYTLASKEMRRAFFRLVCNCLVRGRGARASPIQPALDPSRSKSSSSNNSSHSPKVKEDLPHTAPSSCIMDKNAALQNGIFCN
value kind: activity at the S1P3 receptor (inverse agonism/antagonism or agonism)

# smiles representation, experimental target, recorded value
measured = [
    ("CCCCCCCCCc1cccc(NC(=O)[C@H](N)COP(=O)(O)O)c1.O=C(O)C(F)(F)F", "hS1P3 (Homo sapiens, UniProt Q99500)", "agonism"),
    ("CCCCCCCCc1ccccc1NC(=O)[C@H](N)COP(=O)(O)O", "hS1P3 (Homo sapiens, UniProt Q99500)", "inverse agonists"),
    ("CCCCCCc1cccc(NC(=O)[C@H](N)COP(=O)(O)O)c1.O=C(O)C(F)(F)F", "hS1P3 (Homo sapiens, UniProt Q99500)", "inverse agonists"),
    ("CCCCCCCCc1cccc(NC(=O)[C@H](N)COP(=O)(O)O)c1", "hS1P3 (Homo sapiens, UniProt Q99500)", "inverse agonists"),
]

Next molecule, please.
Q: Quick one: activity at the S1P3 receptor (inverse agonism/antagonism or agonism) for CCCCCCCCCCc1cccc(NC(=O)[C@H](N)COP(=O)(O)O)c1.O=C(O)C(F)(F)F ?
A: agonism

====

Target: hS1P2 (Homo sapiens, UniProt O95136)
Construct: expressed in transfected cells; host or cells: HEK293T
Sequence (O95136 whole entry): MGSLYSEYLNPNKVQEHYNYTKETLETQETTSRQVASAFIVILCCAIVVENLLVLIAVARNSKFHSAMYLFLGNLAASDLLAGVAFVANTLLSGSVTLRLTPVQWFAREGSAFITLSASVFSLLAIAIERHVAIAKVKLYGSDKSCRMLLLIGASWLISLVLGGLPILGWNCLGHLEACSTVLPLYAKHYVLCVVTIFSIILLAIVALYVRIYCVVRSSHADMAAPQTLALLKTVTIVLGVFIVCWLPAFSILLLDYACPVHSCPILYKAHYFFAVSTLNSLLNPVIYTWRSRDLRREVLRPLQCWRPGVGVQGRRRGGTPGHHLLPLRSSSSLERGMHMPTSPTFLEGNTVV
Test: [γ-35S]GTP binding to HEK293T cell membranes, hS1P2
Assay type: biochemical
Conditions: read-out: EC50 Values (nM) for S1P Analogues at Recombinant S1P Receptors, hS1P2; GTPγS binding; HEK293
Experimental: Human or mouse S1P5 DNA was mixed with an equal amount of DNA encoding a rat Gi2R protein as well as DNAs encoding cow β1 and γ2 proteins and used to transfect monolayers of HEK293T cells using the calcium phosphate precipitate method. After 60 h, cells were harvested, and microsomes were prepared, aliquoted, and stored at −70° C. until use. […]
Exercise: state measured EC50 for each of the compounds provided.
Numbers only here, please. The scale is nM.

Q: Would you mind telling me what EC50 value was observed for CCCCCCCCCCCCCCNC(=O)[C@H](N)COP(=O)(O)O [VPC22135] ?
A: 2110

Q: Please give the measured EC50 for this compound: CCCCCCCCCCCCCCNC(=O)[C@@H](N)COP(=O)(O)O [VPC22051]
A: 2760

Q: Need EC50, item CCCCCCCCCCCCCCOC(=O)[C@@H](N)COP(=O)(O)O.O=C(O)C(F)(F)F [VPC22053]
A: 2680

Q: Entry under review: CCCCCCCCCCCCNC(=O)[C@@H](N)COP(=O)(O)O [VPC22041] . Reported EC50?
A: 973

====

molecular target: hS1P1 (Homo sapiens); construct: expressed in transfected cells; host or cells: HEK293T; assay: [γ-35S]GTP binding to HEK293T cell membranes, hS1P1; assay type: biochemical; conditions: read-out: EC50 Values (nM) for S1P Analogues at Recombinant S1P Receptors, hS1P1; GTPγS binding; HEK293
Sequence (P21453 whole entry): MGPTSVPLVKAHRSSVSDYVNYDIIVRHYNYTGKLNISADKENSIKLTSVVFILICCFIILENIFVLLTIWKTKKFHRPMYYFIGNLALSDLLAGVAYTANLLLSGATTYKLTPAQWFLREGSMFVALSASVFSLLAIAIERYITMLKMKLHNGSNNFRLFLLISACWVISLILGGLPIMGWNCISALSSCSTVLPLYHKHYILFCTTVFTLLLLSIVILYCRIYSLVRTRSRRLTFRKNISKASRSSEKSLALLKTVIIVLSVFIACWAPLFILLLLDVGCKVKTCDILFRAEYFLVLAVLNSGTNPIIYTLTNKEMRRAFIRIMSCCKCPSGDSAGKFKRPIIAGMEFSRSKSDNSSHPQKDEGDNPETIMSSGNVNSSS
Please respond with reported log10 of EC50 for every item in the list.
Heads up, the numbers here are log10 of EC50 in nM units.

Q: Reported log10 of EC50 for CCCCCCCCCCCCNC(=O)[C@@H](N)COP(=O)(O)O : what is it?
A: 2.78

Q: Query (molecule): CCCCCCCCCCCCCCNC(=O)[C@@H](N)COP(=O)(O)O ; field requested: log10 of EC50
A: 2.51

Q: Fill in: log10 of EC50 of CCCCCCCCCCCCCCCCNC(=O)[C@@H](N)COP(=O)(O)O is ___
A: 3.26

Q: Item CCCCCCCCCCCCCCNC(=O)[C@H](N)COP(=O)(O)O has what recorded log10 of EC50?
A: 1.10

Q: GET /values?readout=log10 of EC50&item= CCCCCCCCCCCCCCOC(=O)[C@@H](N)COP(=O)(O)O.O=C(O)C(F)(F)F
A: 2.60

Q: For the molecule shown here, CCCCCCCCCCCCC/C=C/[C@@H](O)[C@@H](N)COP(=O)(O)O [Compound S1P, Sphingosine-1-phosphate, reference compound] , give the reported log10 of EC50.
A: -0.05

====

biological target: hS1P5 (Homo sapiens, UniProt Q9H228); construct: expressed in transfected cells; host or cells: HEK293T; assay: [γ-35S]GTP binding to HEK293T cell membranes, hS1P5; type: biochemical; conditions: read-out: EC50 Values (nM) for S1P Analogues at Recombinant S1P Receptors, hS1P5; GTPγS binding; HEK293
Sequence (Q9H228 whole entry): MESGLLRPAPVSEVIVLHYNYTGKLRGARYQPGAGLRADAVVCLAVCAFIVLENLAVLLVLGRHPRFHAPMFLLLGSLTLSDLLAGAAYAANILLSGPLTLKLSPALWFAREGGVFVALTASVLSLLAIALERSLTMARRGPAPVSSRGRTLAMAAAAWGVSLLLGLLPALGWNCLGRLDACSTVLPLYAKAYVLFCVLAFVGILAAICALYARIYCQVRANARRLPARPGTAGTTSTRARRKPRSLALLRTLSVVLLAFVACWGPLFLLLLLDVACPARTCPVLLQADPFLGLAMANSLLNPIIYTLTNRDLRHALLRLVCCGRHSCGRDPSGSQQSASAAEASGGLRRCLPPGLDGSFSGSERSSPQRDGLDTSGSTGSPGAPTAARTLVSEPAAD
value kind: EC50 (nM)
Write the value in nM as a bare number.

Q: Given the entry CCCCCCCCCCCCCCCCNC(=O)[C@@H](N)COP(=O)(O)O , report its measured EC50.
A: 1220

Q: Could you tell me which EC50 is on file for CCCCCCCCCCCCNC(=O)[C@@H](N)COP(=O)(O)O ?
A: 646

Q: Return reported EC50; argument: CCCCCCCCCCCCCCOC(=O)[C@@H](N)COP(=O)(O)O.O=C(O)C(F)(F)F
A: 1610

====

target: hS1P3 (Homo sapiens); construct: expressed in transfected cells; host or cells: HEK293T; test: [γ-35S]GTP binding to HEK293T cell membranes, hS1P3; assay type: biochemical; details: read-out: EC50 Values (nM) for S1P Analogues at Recombinant S1P Receptors, hS1P3; GTPγS binding; HEK293
value kind: EC50 (nM)
Lab book: enter the figure in nM, no units written.

Q: What does the record list as EC50 for CCCCCCCCCCCCCCNC(=O)[C@H](N)COP(=O)(O)O ?
A: 50.8

Q: Quick check: EC50 of CCCCCCCCCCCCCCCCNC(=O)[C@@H](N)COP(=O)(O)O ?
A: 879

Q: Give the measured EC50 of CCCCCCCCCCCCC/C=C/[C@@H](O)[C@@H](N)COP(=O)(O)O [Compound S1P, Sphingosine-1-phosphate, reference compound] .
A: 1.1

Q: # lookup: EC50 of CCCCCCCCCCCCNC(=O)[C@@H](N)COP(=O)(O)O
A: 845

Q: Query (compound): CCCCCCCCCCCCCCOC(=O)[C@@H](N)COP(=O)(O)O.O=C(O)C(F)(F)F ; field requested: EC50
A: 862

Q: I would be grateful if you could share the reported EC50 for CCCCCCCCCCCCCCNC(=O)[C@@H](N)COP(=O)(O)O .
A: 602

====

target: mS1P5 (Mus musculus); construct: expressed in transfected cells; host or cells: HEK293T; experiment: [γ-35S]GTP binding to HEK293T cell membranes, mS1P5; assay type: biochemical; conditions: read-out: EC50 Values (nM) for S1P Analogues at Recombinant S1P Receptors, mS1P5; GTPγS binding
value kind: EC50 (nM)
Return type: number; implicit unit nM.

Q: Given CCCCCCCCCCCCCCOC(=O)[C@@H](N)COP(=O)(O)O.O=C(O)C(F)(F)F , state its recorded EC50.
A: 2010
